measured_target: human orexin-2 receptor (OX2R) (Homo sapiens)
protocol: Human OX2R IP1 assay
condition: T-Rex CHO cells stably overexpressing human OX2R, IP1 accumulation, 1 hr at 37 degrees C; mean EC50; ∧ = racemic mixture
pEC50: −log10 of the molar value.
assay_metric: pEC50

Worked examples, 5 molecules total:
molecule	pEC50
CS(=O)(=O)N[C@H]1CCCN2C(=O)COc3nnccc3[C@H]3CC[C@H](CC3)OC[C@@H]12 [Compound 56]	6.00 to 7.00
C[C@@H]1Oc2ccccc2C2CCC(CC2)OCC2[C@@H](NS(C)(=O)=O)CCCN2C1=O (stereo partly shown)	> 7.00
CS(=O)(=O)N[C@H]1CCCN2CCOc3ncccc3[C@H]3CC[C@H](CC3)OC[C@@H]12	6.00 to 7.00
CS(=O)(=O)N[C@H]1CCN2C(=O)C(F)(F)Oc3ccccc3[C@H]3CC[C@H](CC3)OC[C@@H]12	> 7.00
CS(=O)(=O)N[C@H]1CCN2CCOc3ccccc3[C@H]3CC[C@H](CC3)OC[C@@H]12	< 6.00

## Task Please give measured pEC50 of the following entry: CS(=O)(=O)N[C@H]1CCCN2CCCOc3ccccc3[C@H]3CC[C@H](CC3)OC[C@@H]12
## Result < 6.00

## Task Please give measured pEC50 of the following entry: CS(=O)(=O)N[C@H]1CCCN2C(=O)COc3c(F)cc(F)cc3[C@H]3CC[C@H](CC3)OC[C@@H]12
## Result > 7.00

* * *

The following molecules are listed with their measured EC50 values.
measured_target: human orexin-2 receptor (OX2R) (Homo sapiens, UniProt O43614)
Sequence (O43614 whole entry): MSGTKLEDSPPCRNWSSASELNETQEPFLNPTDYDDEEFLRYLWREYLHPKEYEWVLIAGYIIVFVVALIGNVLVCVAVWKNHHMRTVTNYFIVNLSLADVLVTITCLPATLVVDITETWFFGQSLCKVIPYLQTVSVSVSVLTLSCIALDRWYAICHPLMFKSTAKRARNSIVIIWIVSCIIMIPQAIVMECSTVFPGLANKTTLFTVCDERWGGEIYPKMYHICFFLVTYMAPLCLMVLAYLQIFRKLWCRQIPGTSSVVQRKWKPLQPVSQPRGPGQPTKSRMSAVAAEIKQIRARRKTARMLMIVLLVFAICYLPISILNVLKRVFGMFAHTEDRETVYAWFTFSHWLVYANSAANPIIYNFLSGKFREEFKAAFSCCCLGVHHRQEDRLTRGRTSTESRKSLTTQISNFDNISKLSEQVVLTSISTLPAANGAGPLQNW
protocol: Human OX2R IP1 assay
condition: T-Rex CHO cells stably overexpressing human OX2R, IP1 accumulation, 1 hr at 37 degrees C; mean EC50; ∧ = racemic mixture

Worked examples, 3 molecules total:
molecule	EC50
C[C@@H]1COc2ccccc2C2CCC(CC2)OCC2[C@@H](NS(C)(=O)=O)CCCN21 (stereo partly shown) [Compound 63]	> 1000 nM
C[C@H]1Oc2ccccc2C2CCC(CC2)OCC2[C@@H](NS(C)(=O)=O)CCCN2C1=O (stereo partly shown) [Compound 38]	< 100 nM
CS(=O)(=O)N[C@H]1CCCN2CCOc3ccccc3[C@H]3CC[C@H](CC3)OC[C@@H]12 [Compound 6]	< 100 nM

# input for lookup
## Task Please give measured EC50 of the following entry: CS(=O)(=O)N[C@H]1CCN2C(=O)COc3ncccc3[C@H]3CC[C@H](CC3)OC[C@@H]12 [Compound 18]
## Result 100 to 1000 nM

* * *

Tested on: MDR1
protocol: MDCK-MDR1 permeability assay
Format: in vitro ADME
condition: dog, MDCK-MDR1, Papp (basolateral to apical) divided by Papp (apical to basolateral), MDCK-MDR1 cells, 3 μM; read-out: Efflux ratio (ER)
assay_metric: efflux ratio at 2 h, 3 μM

compound	endpoint_value
CS(=O)(=O)N[C@H]1CCCN2C(=O)COc3ccccc3C3CC[C@@H](CO3)OCC12 (stereo partly shown)	3.8
CS(=O)(=O)N[C@H]1CCCN2CCOc3c(F)cc(F)cc3C3CCC(CC3)OCC12 (stereo partly shown)	10
CS(=O)(=O)N[C@H]1CCCN2C(=O)COc3c(F)cc(F)cc3C3CCC(CC3)OCC12 (stereo partly shown)	6.2
CS(=O)(=O)N[C@H]1CCCN2C(=O)C(F)(F)Oc3c(F)cc(F)cc3C3CCC(CC3)OCC12 (stereo partly shown)	12
CS(=O)(=O)N[C@H]1CCN2C(=O)C(F)(F)Oc3ccccc3C3CCC(CC3)OCC12 (stereo partly shown)	7.9
CS(=O)(=O)N[C@H]1CCCN2C(=O)COc3ccc(Cl)cc3C3CCC(CC3)OCC12 (stereo partly shown)	21
C[C@H]1CN2CCC[C@H](NS(C)(=O)=O)C2COC2CCC(CC2)c2ccccc2O1 (stereo partly shown)	1.5
CS(=O)(=O)N[C@H]1CCCN2C(=O)COc3ccccc3C3CCC(CC3)OCC12 (stereo partly shown)	39

[I] CS(=O)(=O)N[C@H]1CCCN2C(=O)COc3ccccc3C3CC[C@H](CO3)OCC12 (stereo partly shown)
[II] CS(=O)(=O)N[C@H]1CCN2C(=O)C(F)(F)Oc3c(F)cc(F)cc3C3CCC(CC3)OCC12 (stereo partly shown)
## Task I or II : whose efflux ratio at 2 h, 3 μM is greater? Answer format: the label of the selected item.
## Result II
(II: 7.3, I: 2.6)

[a] C[C@H]1COc2ccccc2C2CCC(CC2)OCC2[C@@H](NS(C)(=O)=O)CCCN21 (stereo partly shown)
[b] CS(=O)(=O)N[C@H]1CCCN2C(=O)COc3ncc(F)cc3C3CCC(CC3)OCC12 (stereo partly shown)
[c] CS(=O)(=O)N[C@H]1CCCN2CCOc3ncccc3C3CCC(CC3)OCC12 (stereo partly shown)
## Task Place the items in sequence of falling efflux ratio at 2 h, 3 μM. I'd appreciate it if you listed the labels in the requested order.
## Result b, a, c
(b: 30, a: 2.2, c: 0.5)

[I] CS(=O)(=O)N[C@H]1CCN2C(=O)COc3c(F)cc(F)cc3C3CCC(CC3)OCC12 (stereo partly shown)
[II] CS(=O)(=O)N[C@H]1CCCN2C(=O)C(F)(F)Oc3ccccc3C3CCC(CC3)OCC12 (stereo partly shown)
## Task I or II : whose efflux ratio at 2 h, 3 μM is greater? Answer format: the label of the selected item.
## Result II
(II: 5.1, I: 1.1)
